Cited source for all entries: patent US12503484B2

Could you please report measured Kd for the items listed next?
# target_desc: SERCA2a (Cavia porcellus, UniProt A0A286XD73)
# Sequence (A0A286XD73 1-997): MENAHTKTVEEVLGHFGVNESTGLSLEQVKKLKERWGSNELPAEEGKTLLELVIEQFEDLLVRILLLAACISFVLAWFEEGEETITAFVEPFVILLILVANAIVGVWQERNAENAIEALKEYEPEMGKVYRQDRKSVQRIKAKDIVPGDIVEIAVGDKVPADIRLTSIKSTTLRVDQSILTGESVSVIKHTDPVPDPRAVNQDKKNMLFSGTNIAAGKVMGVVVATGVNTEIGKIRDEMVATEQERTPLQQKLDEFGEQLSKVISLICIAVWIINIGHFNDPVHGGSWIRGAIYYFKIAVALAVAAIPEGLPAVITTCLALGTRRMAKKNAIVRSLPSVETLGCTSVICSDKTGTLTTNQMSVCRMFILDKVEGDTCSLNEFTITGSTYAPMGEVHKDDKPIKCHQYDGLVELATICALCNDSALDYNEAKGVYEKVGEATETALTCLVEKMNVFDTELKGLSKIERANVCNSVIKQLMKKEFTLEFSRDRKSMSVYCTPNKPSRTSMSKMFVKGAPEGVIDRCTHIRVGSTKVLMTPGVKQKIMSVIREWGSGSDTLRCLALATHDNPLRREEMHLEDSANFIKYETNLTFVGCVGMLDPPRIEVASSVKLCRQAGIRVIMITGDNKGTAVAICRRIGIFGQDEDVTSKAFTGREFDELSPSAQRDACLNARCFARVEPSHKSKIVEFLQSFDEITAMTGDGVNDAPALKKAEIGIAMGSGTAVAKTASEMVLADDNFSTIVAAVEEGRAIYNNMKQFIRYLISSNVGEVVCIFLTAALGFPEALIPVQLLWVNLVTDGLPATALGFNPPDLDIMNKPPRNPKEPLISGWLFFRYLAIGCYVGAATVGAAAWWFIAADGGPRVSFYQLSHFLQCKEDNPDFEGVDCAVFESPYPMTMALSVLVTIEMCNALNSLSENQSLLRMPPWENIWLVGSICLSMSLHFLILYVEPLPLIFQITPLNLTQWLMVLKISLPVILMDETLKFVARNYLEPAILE
# assay_summary: SERCA2a ATPase activity in heart-derived SR microsomes from normal guinea-pig
# Assay type: biochemical
# experimental_parameters: compound 1 nM, read-out: Kd Ca2+ (nM) mean ± SD
One number for each entry, in nM.

compound	reported
C[C@]12CC[C@H](CCCC(=O)O)CC1[C@H](O)C[C@@H]1[C@@H]2CC[C@]2(C)C(=O)CC[C@@H]12 (some centres unmarked) [CVie215]	530

Consider now this further compound.
Noted for C[C@]12CC/C(=N/OCCN)C[C@@H]1C(=O)C[C@@H]1[C@@H]2CC[C@]2(C)C(=O)CC[C@@H]12 [Istaroxime, reference compound] : its Kd reads 524
